test_system: Delta opioid receptor (DOR) (Homo sapiens, UniProt P41143); further: unit not given here
Sequence (P41143 whole entry): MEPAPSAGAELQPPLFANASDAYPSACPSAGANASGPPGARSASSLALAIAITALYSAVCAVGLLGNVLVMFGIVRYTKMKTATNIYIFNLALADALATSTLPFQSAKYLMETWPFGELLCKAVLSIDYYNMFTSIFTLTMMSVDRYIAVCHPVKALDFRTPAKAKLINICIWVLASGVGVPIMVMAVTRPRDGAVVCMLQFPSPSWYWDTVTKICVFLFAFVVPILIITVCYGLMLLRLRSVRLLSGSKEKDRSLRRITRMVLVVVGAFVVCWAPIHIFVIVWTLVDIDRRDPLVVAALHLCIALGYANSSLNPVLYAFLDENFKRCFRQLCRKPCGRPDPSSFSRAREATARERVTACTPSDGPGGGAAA
assay_details: cell-based
Type: cell-based
Square brackets hold non-standard residues; d marks the D form. Peptide text beside a SMILES is read from it. Phe(4-NO2) = N[C@@H](Cc1ccc([N+](=O)[O-])cc1)C(=O)O; Phe(4-Cl) = N[C@@H](Cc1ccc(Cl)cc1)C(=O)O; Sar = CNCC(=O)O
readout_kind: cAMP assay DOR 10 μM
No unit in the answer, only the number.

molecule	test_system	readout_kind	observed
CC(C)C[C@H](NC(=O)[C@H](Cc1ccc([N+](=O)[O-])cc1)NC(=O)CN(C)C(=O)[C@@H](N)Cc1ccc(O)cc1)C(=O)N[C@H](CCCNC(=N)N)C(=O)N[C@@H](CCCNC(=N)N)C(N)=O [SEQ ID NO. 5, NH2-Tyr-Sar-(4-NO2)Phe-Leu-DArg-Arg-NH2] (H-Y[Sar][Phe(4-NO2)]L[dR]R-NH2)	Delta opioid receptor (DOR) (Homo sapiens, UniProt P41143)	cAMP assay DOR 10 μM	2.02
CC(C)C[C@H](NC(=O)[C@H](Cc1ccccc1)NC(=O)CN(C)C(=O)[C@@H](N)Cc1ccc(O)cc1)C(=O)N[C@H](CCCNC(=N)N)C(=O)N[C@@H](CCCNC(=N)N)C(N)=O [SEQ ID NO. 6, NH2-Tyr-Sar-Phe-Leu-DArg-Arg-NH2] (H-Y[Sar]FL[dR]R-NH2)	Delta opioid receptor (DOR) (Homo sapiens, UniProt P41143)	cAMP assay DOR 10 μM	2.25
CC(C)C[C@@H](NC(=O)[C@@H](Cc1ccccc1)NC(=O)[C@H](N)Cc1ccccc1)C(=O)N[C@H](CCCCN)C(=O)N1CCC(N)(C(=O)O)CC1 [SEQ ID NO. 35, DPhe-DPhe-DLeu-DLys-Cap-CO2H, reference compound]	Delta opioid receptor (DOR) (Homo sapiens, UniProt P41143)	cAMP assay DOR 10 μM	3.27
CC(C)C[C@H](NC(=O)[C@H](Cc1ccc([N+](=O)[O-])cc1)NC(=O)CN(C)C(=O)[C@@H](N)Cc1ccc(O)cc1)C(=O)N[C@@H](CCCNC(=N)N)C(=O)N[C@H](CCCNC(=N)N)C(N)=O [SEQ ID NO. 4, NH2-Tyr-Sar-(4-NO2)Phe-Leu-Arg-DArg-NH2] (H-Y[Sar][Phe(4-NO2)]LR[dR]-NH2)	Delta opioid receptor (DOR) (Homo sapiens, UniProt P41143)	cAMP assay DOR 10 μM	2.04

Endpoint output: cAMP assay DOR 10 μM of CC(C)C[C@H](NC(=O)[C@H](Cc1ccccc1)NC(=O)CN(C)C(=O)[C@@H](N)Cc1ccc(O)cc1)C(=O)N[C@H](CCCNC(=N)N)C(=O)N[C@H](CCCNC(=N)N)C(N)=O [SEQ ID NO. 7, NH2-Tyr-Sar-Phe-Leu-DArg-DArg-NH2] (H-Y[Sar]FL[dR][dR]-NH2) . Value?
2.53

Endpoint output: cAMP assay DOR 10 μM of CC(C)C[C@H](NC(=O)[C@H](Cc1ccccc1)NC(=O)CN(C)C(=O)[C@@H](N)Cc1ccc(O)cc1)C(=O)N[C@@H](CCCNC(=N)N)C(=O)N[C@H](CCCNC(=N)N)C(N)=O [SEQ ID NO. 3, NH2-Tyr-Sar-Phe-Leu-Arg-DArg-NH2] (H-Y[Sar]FLR[dR]-NH2) . Value?
2.24

Endpoint output: cAMP assay DOR 10 μM of CC(C)C[C@H](NC(=O)[C@H](Cc1ccccc1)NC(=O)CN(C)C(=O)[C@@H](N)Cc1ccc(O)cc1)C(=O)N[C@@H](CCCNC(=N)N)C(=O)N[C@@H](CCCNC(=N)N)C(N)=O [SEQ ID NO. 2, NH2-Tyr-Sar-Phe-Leu-Arg-Arg-NH2] (H-Y[Sar]FLRR-NH2) . Value?
21.96

Endpoint output: cAMP assay DOR 10 μM of CC(C)C[C@H](NC(=O)[C@H](Cc1ccc(Cl)cc1)NC(=O)CN(C)C(=O)[C@@H](N)Cc1ccc(O)cc1)C(=O)N[C@@H](CCCNC(=N)N)C(=O)N[C@H](CCCNC(=N)N)C(N)=O [SEQ ID NO. 11, NH2-Tyr-Sar-(4-Cl)Phe-Leu-Arg-DArg-NH2] (H-Y[Sar][Phe(4-Cl)]LR[dR]-NH2) . Value?
4.27
